The reported numbers originate from the supplement of paper PMC9170038.

System: MS2 coat protein
Test: apparent KD of MS2 coat protein; designed switch direction (-1 OFF switch, 1 ON switch): -1; higher = weaker reporter binding
Conditions: Eterna round: R95; input ligand: microRNA oligo, concentration not stated
In this section we review reported apparent KD of MS2 coat protein values for a set of sequences.

Biosequence	apparent KD of MS2 coat protein, nM
CCUCAGUAAGGAUAUCAGCUUAGGAGGUUGGUAAUGAGAGCUGAGAAGGUACAUGAGGAUCACCCAUGUUAGUU [JL Zatite mod 7] (puzzle: Exclusion 4)	30.2
CAAAAGCUAGGAUAUCGCAAACAAGACAUGAGGAUCACCCAUGUGUCCAUGGCCGACCUCCGAGAAGGAGCAAUAU [Dieded] (puzzle: Exclusion 5)	27.9
GGCCCACAUGAGGAUCACCCAUGUGAGGAUAUGUUAGUUUCGGCGAAAGCCGAAAUUAACAGAAGGCACAGGCC [JR_Exclusion1_Sub022] (puzzle: Exclusion 1)	10.8
UUAAACGCAGGAUAUACAUUUUUUUUAUUAUCCUCAUAAAUACAUGAGGAUCACCCAUGUAGAAGGGCGAAAUU [Mat - Exclusion 2 - Mod of Hog - D87] (puzzle: Exclusion 2)	144
UUUUAACAUGAGGAUCACCCAUGUGAGGAUAUCAUUUUUUUUUUUUUUUUUUUUUUUUUGAGAAGGCACAUUUU [My solution] (puzzle: Exclusion 1)	37
UUGGAGAUAGGAUAUACGAGGAGAGUUGAGGGAAGGUGAUGACAUGAGGAUCACCCAUGUAGAAGGAUCAGGAG [JR_Exclu2_Sub069] (puzzle: Exclusion 2)	118
AAGGGCUGAGGAUAUGCGCGGGCAAGAUCCUCAAUCCCAAAACAUGAGGAUCACCCAUGUAGAAGGCAGAAAUA [Atedonesle] (puzzle: Exclusion 2)	28.3
GAUCAACAUGAGGAUCACCCAUGUGAGGAUAUGAUACUAUGUACUUCGGUACAUAGUAUCAGAAGGCAUAUUGA [Ex1-3: 41] (puzzle: Exclusion 1)	50.7
GUGUAGAUAGGAUAUGCUGGAAUCUAGCGAAGCUAGGUUCUACAUGAGGAUCACCCAUGUAGAAGGGUCUACAC [Dot plot directed A v12] (puzzle: Exclusion 2)	28.5
UAGAUGGGAGGAUAUGCGUAGAUGCGGAUUCGUGUGGUGCUACAUGAGGAUCACCCAUGUAGAAGGCCCGUCUU [JL-ex2-2.26 Mayanne mod] (puzzle: Exclusion 2)	13.5
AAACCUGCCCAUGACCGCAAGCUUUUUGCUUGUCUCACCACAUGAGGAUCACCCAUGUGACAUGGGCUCCUUAUAAA [Orvesovera] (puzzle: Sensor v3, turn-off variant 2)	9.96
CCAGCGUGUGUGAGGAUAUGCUGGUCCUUGGAUCAGCAGAAGGCACAUGAGGAUCACCCAUGUGAGAGCGUUGG [JL bmx4 3.36] (puzzle: Brourd's mod of Exclusion 4)	20.7
UUAUAAAGAGUGAGGAUAUGCUGGUCCUUGGAUCAGCAGAAGGCACAUGAGGAUCACCCAUGUAAAAUAAUAUU [Mat - Exclusion 4 - JL Mod - D40] (puzzle: Brourd's mod of Exclusion 4)	25.4
CAGUACUACAAGCUAAGGGACAUGAGGAUCACCCAUGUUCGUCUUAUUGAUCUAGGUACGCUGACGUACCUAGAUCU [JL-sv1-2.18 Brourd mod] (puzzle: Sensor v3, turn-off variant 1)	20.8
ACCUCACAUGAGGAUCACCCAUGUCAGGAUAUUCAAACAGGCGAAACUCCGCCUUCUCGAAGAAGGGACAUUAA [Israon] (puzzle: Exclusion 1)	16.2
UUUUAACAUGAGGAUCACCCAUGUGAGGAUAUCGAAAUUUAUAUUAAUAUUAAUUAAACGAGAAGGCACAUUUU [JMF 27] (puzzle: Exclusion 1)	72.5
GGUGCGUUUGUGAGGAUAUGCUGGUCCUUGGAUCUGCAGAAGGCACAUGAGGAUCACCCAUGUGGUGUCGUACC [salish99_Bmod_Ex4_036] (puzzle: Brourd's mod of Exclusion 4)	208
AAGGAUAGAGGAUAUACAUAGAUACAGAUUCGUGUAGAACUACAUGAGGAUCACCCAUGUAGAAGGCUAUCCUA [Fiskers Ex 2 - 7] (puzzle: Exclusion 2)	15.2
GGGUAGUGAGGAUAUCGUUGUUAGGAGGAGUAGGUAGGAGGCGAGAAGGCACAUGAGGAUCACCCAUGUAUGAG [JR_Exclu4_Sub065] (puzzle: Exclusion 4)	25.5
UUAAUGUGAGGAUAUCAGGUGUGCUAGCGUACUGGUACAUCUGAGAAGGCACAUGAGGAUCACCCAUGUUCCUU [JL-ex4-3.27 Brourd mod] (puzzle: Exclusion 4)	16.2
CAGUACUGAGGAUAUACAUGAGGAUCACCCAUGUGUUCCAGCUGGGAAACUAGCAAAAGUAGAAGGCAGUACUG [salish99_ex3_r3_076] (puzzle: Exclusion 3)	27.3

###

System: MS2 coat protein
Assay: apparent KD of MS2 coat protein; designed switch direction (-1 OFF switch, 1 ON switch): -1; higher = weaker reporter binding
Details: input ligand: FMN 200 uM
Readout Type: apparent KD of MS2 coat protein (µM)

Biosequence	Target System	Quantity Unit	Meas Value
GCUGGUCGAGGAUAUGCAUACACUGGAUACAGUGGAAGGUCACAUGAGGAUCACCCAUGUAGAAGGCGACCAGC [EX2 #35] (Eterna round: R97, puzzle: Exclusion 2)	MS2 coat protein	µM	0.122
CACGUGUCAGGAUAUCCCGCGCGCGCUUCACCGAGAGUGCGGGAGAAGGGACAUGAGGAUCACCCAUGUCCUUC [Eternabot (L1) Solution 93] (Eterna round: R97, puzzle: Exclusion 4)	MS2 coat protein	µM	0.0128
CGGCAUGUAGAAGGAUAUCUGCACGAUUAGUGCAGAGAAGGUCUAACAUGAGGAUCACCCAUGUAGAUCAUUAACCGAUUAAUU [ENG1/8-A1] (Eterna round: R96, puzzle: Exclusion NG 1)	MS2 coat protein	µM	0.0219

###

Tested on: MS2 coat protein
Test: apparent KD of MS2 coat protein; designed switch direction (-1 OFF switch, 1 ON switch): 1; higher = weaker reporter binding
Settings: input ligand: microRNA oligo, concentration not stated
In this section we review reported apparent KD of MS2 coat protein values for a set of sequences.
Readout Type: apparent KD of MS2 coat protein (nM)

Biosequence	Quantity Unit	Meas Value
ACAUGAGACUUAGGAUAUGUUGUACCUACAUGUGACAUGAGGAUCACCCAUGUGGUAAGUAUGAUACAGAAGGAAGAGAUAUGU [Equivalance 66 - Jieux - Same State NG 2] (Eterna round: R96, puzzle: Same State NG 2)	nM	27.5
UGGUACAUGGGAGGAUAUGGAGUGAUGACAUGAGGAUCACCCAUGUUAUUUAUGCCGAGAGGCAACUAGAAGGCCCAUGUACCU [JL SSNG1 3.96] (Eterna round: R96, puzzle: Same State NG 2)	nM	40.8
GAGUGGUGGAGAGGAUAUACAUUGUUAUUCACUGUAGAAGGUUCUAACAUGAGGAUCACCCAUGUAGGACUAUUCCUGAGAGUU [Parity 55 - Jieux - Same State NG 1] (Eterna round: R96, puzzle: Same State NG 1)	nM	10.9
CAGCGCUGUUGAGAGGAUAUGCGGUGAUGGACAUGAGGAUCACCCAUGUUAGCGACAGCAUUACGGCAGAAGGCUUCACAGCUGC [Soteed Omei mod 17] (Eterna round: R96, puzzle: Same State 2)	nM	36.9
GGAGGACAUGAGGAUCACCCAUGUGGAUGGGCGCUAGGAUAUGCGUGCGGGAAGAGUGGAGCAGAAGGAGUGGGUU [JR_SS1_Sub045] (Eterna round: R96, puzzle: Same State 1)	nM	41.9
UGGCUCAGACGAGGAUAUGAUCAUGGCGCUUCGGCGCAUACAUGAGGAUCACCCAUGUAGGGUGAUCAGAAGGUGUCUGAGCCA [SSNG2/8-B2] (Eterna round: R96, puzzle: Same State NG 2)	nM	578
GCCAACAUGAGGAUCACCCAUGUCCGGAAGUGAAUUCAAAGUGAGGAUAUGGAGAGACCGAAAAUCCAGAAGGCACGCACAUGC [Eternabot solution 10] (Eterna round: R96, puzzle: Same State NG 3)	nM	475
AGCCGAGACACAGGAUAUACAUGUUUACAUGAGGAUCACCCAUGUAGCAACACGUGGUAGUGAUUGUAGAAGGGUGCUCGGCGC [Omei SS(NG)2 Cv12] (Eterna round: R96, puzzle: Same State NG 2)	nM	12.6
GCGAAAGCGGUAGGAUAUCUAGGAUAUGGGAAGGACUAAGUCUGGAGGUCACCUCACCCAGAAGGAGAGAAGGACACCGAAAGG [pwkr ssNG2 2FMN + F9.1] (Eterna round: R96, puzzle: Same State NG 2)	nM	204
GUUACAUGAGGAUCACCCAUGUAUGUGUGGGAGUAAGUGUCUUAGGAUAUCUAUGUUUUAAUUUAAGAGAAGGAAGAUUGUUGU [JMF's solution 71] (Eterna round: R96, puzzle: Same State NG 3)	nM	102
UGGCUGAGUCGAGGAUAUGAUCUUCAUAUAUAUACAUGAGGAUCACCCAUGUAUAAUUACAUGGAUCAGAAGGCGACUCAGCCU [SSNG2/13-A2] (Eterna round: R96, puzzle: Same State NG 2)	nM	23
UGUUGUAUUACAGGAUAUCUAUUGUUUUUAAUUAGAGAAGGGUAUUCACAUGAGGAUCACCCAUGUAUAUACGAGGAAGUUGUG [JMF's solution 81] (Eterna round: R96, puzzle: Same State NG 1)	nM	37.6
AACCGCGCAGAUGCGCGACAUGAGGAUCACCCAUGUGGCACACAGGAUAUCCUGAACAGCUAUUAGGAGAAGGGUGAAGGCCUC [Oredceti] (Eterna round: R96, puzzle: Same State NG 3)	nM	45.1
CCAGGACAUGAGGAUCACCCAUGUGCUUAAUGUGGAGAAUCUCAGGAUAUCAUGAGGAUCACCCAUGAGAAGGGAGAUCCGAGG (Eterna round: R96, puzzle: Same State NG 3)	nM	234
UGGUACAUGGGAGGAUAUGGAGUGAUGACAUGAGGAUCACCCAUGUUAUAUAUGCCGAGAGGCAACUAGAAGGCCCAUGUACCU [JL SSNG1 3.97] (Eterna round: R96, puzzle: Same State NG 2)	nM	121
GGUCCAGCCUGAGCUGGACUACAGCAUGUACAUGAGGAUCACCCAUGUCAUGUACAUGUUUUUUGUUUGUCUUAAAA [Sensorship 9 - Jieux - Sensor for hsa-mir-208a] (Eterna round: R96, puzzle: Sensor for hsa-mir-208a)	nM	57.5
AUGCCAAAACGAGGAUAUGGAGCCUUAUUGGCUCCAGAAGGUGUGACAUGAGGAUCACCCAUGUGGCAGUGGUCUAAUGACCAC [Eli NG1ss - 40] (Eterna round: R96, puzzle: Same State NG 1)	nM	105
UAGGGACAUGAGGAUCACCCAUGUGCCUCAUAUGGAGAAACUCAGGAUAUGCUGAGGAUCACCCGGCAGAAGGGAGAUUUGACC (Eterna round: R96, puzzle: Same State NG 3)	nM	37.1
